I'd be grateful if you could share measured Kd for these entries.
Molecular target: RBD-FH, monomeric RBD (332-534) with a FLAG peptide and an 8xHis-tag at the C-terminus (SARS-CoV-2, UniProt P0DTC2 332-534)
Field: numeric (nM). Do not append units.

query: Query (binder): Nb 1.26 (VHH) VHH: QVQLVESGGGLVQAGGSLRLSCAATGYTWSSVCMGWFRQAPGKEREGVAGIPSGRNRPYYADSVKGRFTISQDNAKNAVFLLMNSLKPEDTAIYYCAPCSAPHDPEYNYWGQGTQVTVSS ; field requested: Kd
result: 0.26

query: Another: Nb 2.20 (VHH) VHH: QVQLVESGGGSVQAGGSLRLSCAASGYTYNNYYMGWFRQAPGKEREGVAAINSDGLDTYVADSVKGRFTISRDNAKDTVHLQMNSLKPEDTAIYSCATGRTVYYSGYDFRLSVDDYWGQGTQVTVSS
result: 0.77

query: Another: Nb 1.16 (VHH) VHH: QVQLVESGGGSVQAGGSLRLSCAASGNTSKRKCVGWFRRAPGKEREGVTLIYTVGGSTVYADSVKGRFTISQDNAKDTVYLQMNSLKPEDSAMYYCAAESWGRQCNLETHRFTFWGQGTQVTVSS
result: 3.59

query: Another: Nb 2.11 (VHH) VHH: QVQLVESGGGSVQAGGSLRLSCAASGDASNRKCVSWFRRAPGKEREGVALIFPVGSSTAYADSVKGRFTISQDSAKDTVYLQMNNLKPEDSGTYYCAAVSWGGRCNLETQTVTFWGQGTQVTVSS
result: 1.72
